# credit: patent US7897621B2

I'd be grateful if you could share measured pIC50 for these entries.
- TESTED_ON: cannabinoid CB1 receptor (Homo sapiens, UniProt P21554)
- Sequence (P21554 whole entry): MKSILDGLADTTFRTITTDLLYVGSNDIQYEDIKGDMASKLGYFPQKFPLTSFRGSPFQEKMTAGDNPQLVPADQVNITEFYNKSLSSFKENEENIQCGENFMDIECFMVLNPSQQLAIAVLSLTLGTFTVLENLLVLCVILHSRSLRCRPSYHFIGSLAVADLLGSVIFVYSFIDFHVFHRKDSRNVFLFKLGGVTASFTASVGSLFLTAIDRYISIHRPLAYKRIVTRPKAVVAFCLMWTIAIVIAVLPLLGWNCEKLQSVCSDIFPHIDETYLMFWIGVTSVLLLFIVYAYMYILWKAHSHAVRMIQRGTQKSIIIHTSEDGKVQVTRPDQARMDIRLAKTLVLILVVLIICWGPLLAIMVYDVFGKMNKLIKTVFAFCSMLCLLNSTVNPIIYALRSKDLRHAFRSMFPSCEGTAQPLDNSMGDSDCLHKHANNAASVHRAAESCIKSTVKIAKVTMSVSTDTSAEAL
pIC50: −log10 of the molar value.

Ask | # pIC50 lookup, item O=C(N[C@@H]1CCCC[C@H]1O)c1cc(-c2ccc(Cl)cc2)c(OCC(F)(F)F)nc1C(F)(F)F
Reply | 5.25

Ask | And then O=C(N[C@@H]1CCCC[C@H]1O)c1cc(-c2ccc(Cl)c(Cl)c2)c(OCc2ccccn2)nc1C(F)(F)F , what is it?
Reply | < 5.00

Ask | And then O=C(N[C@@H]1CCCC[C@@H]1O)c1cc(-c2ccc(Cl)cc2)c(OCC(F)(F)F)nc1C(F)(F)F , what is it?
Reply | < 5.00

Ask | And then O=C(N[C@H]1CCCC[C@H]1O)c1cc(-c2ccc(Cl)cc2)c(OCC(F)(F)F)nc1C(F)(F)F , what is it?
Reply | < 5.00

Ask | And then C[C@@](O)(CNC(=O)c1cc(-c2ccc(Cl)c(Cl)c2)c(OCC(F)(F)F)nc1C(F)(F)F)C1CC1 , what is it?
Reply | < 5.00

Ask | And then CC(O)(CNC(=O)c1cc(-c2ccc(Cl)cc2)c(OCC(F)(F)F)nc1C(F)(F)F)C1CC1 (centres unmarked) , what is it?
Reply | ~5.00

Ask | And then C[C@](O)(CNC(=O)c1cc(-c2ccc(Cl)c(Cl)c2)c(OCC(F)(F)F)nc1C(F)(F)F)C1CC1 , what is it?
Reply | < 5.00

Ask | And then CC(O)(CNC(=O)c1cc(-c2ccc(Cl)c(Cl)c2)c(OCC(F)(F)F)nc1C(F)(F)F)C1CC1 (centres unmarked) , what is it?
Reply | < 5.00
